Target: Protein farnesyltransferase (PFT) (Plasmodium falciparum) (UniProt Q5EI73+Q5EI74)
Assay: Inhibition of Plasmodium falciparum PFT at 5 nM
Lab note: compare inhibition against 60%. Equal or greater, write Criterion met. Smaller, write Criterion not met.

Solved entries:
Cn1cnc(S(=O)(=O)N(CCN(Cc2cncn2C)c2ccc(C#N)cc2)CC2CCN(c3ncccn3)CC2)c1	Criterion met
Cn1cnc(S(=O)(=O)N(CCN(Cc2cncn2C)c2ccc(C#N)cc2)CCn2cccc2)c1	Criterion not met
C=CCN(CCN(Cc1cncn1C)c1ccc(C#N)cc1)S(=O)(=O)c1cn(C)cn1	Criterion not met

In the following, a different molecule is considered.
Does the reported inhibition for Cn1cnc(S(=O)(=O)N(CCN(Cc2cncn2C)c2ccc(C#N)cc2)Cc2ccc(C#N)cc2)c1 fall at or above the 60% mark?
Criterion not met

* * *

For each of the compounds below, state its pIC50.
Biological target: Protein farnesyltransferase (PFT) (Plasmodium falciparum, UniProt Q5EI73+Q5EI74)
Sequence (Q5EI73 whole entry): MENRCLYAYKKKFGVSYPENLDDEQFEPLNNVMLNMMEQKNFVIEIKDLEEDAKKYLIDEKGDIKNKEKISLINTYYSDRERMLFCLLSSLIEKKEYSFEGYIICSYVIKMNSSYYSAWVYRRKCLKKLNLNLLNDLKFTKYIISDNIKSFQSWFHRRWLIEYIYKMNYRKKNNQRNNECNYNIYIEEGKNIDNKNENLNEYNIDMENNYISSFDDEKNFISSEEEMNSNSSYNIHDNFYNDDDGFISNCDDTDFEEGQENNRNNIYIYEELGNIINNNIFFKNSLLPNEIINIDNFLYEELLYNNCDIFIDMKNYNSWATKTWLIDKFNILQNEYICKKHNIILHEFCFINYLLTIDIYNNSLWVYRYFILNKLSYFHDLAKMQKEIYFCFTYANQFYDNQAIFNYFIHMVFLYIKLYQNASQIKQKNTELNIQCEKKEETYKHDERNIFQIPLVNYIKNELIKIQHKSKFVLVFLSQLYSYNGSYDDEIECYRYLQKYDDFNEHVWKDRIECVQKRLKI
Sequence (Q5EI74 whole entry): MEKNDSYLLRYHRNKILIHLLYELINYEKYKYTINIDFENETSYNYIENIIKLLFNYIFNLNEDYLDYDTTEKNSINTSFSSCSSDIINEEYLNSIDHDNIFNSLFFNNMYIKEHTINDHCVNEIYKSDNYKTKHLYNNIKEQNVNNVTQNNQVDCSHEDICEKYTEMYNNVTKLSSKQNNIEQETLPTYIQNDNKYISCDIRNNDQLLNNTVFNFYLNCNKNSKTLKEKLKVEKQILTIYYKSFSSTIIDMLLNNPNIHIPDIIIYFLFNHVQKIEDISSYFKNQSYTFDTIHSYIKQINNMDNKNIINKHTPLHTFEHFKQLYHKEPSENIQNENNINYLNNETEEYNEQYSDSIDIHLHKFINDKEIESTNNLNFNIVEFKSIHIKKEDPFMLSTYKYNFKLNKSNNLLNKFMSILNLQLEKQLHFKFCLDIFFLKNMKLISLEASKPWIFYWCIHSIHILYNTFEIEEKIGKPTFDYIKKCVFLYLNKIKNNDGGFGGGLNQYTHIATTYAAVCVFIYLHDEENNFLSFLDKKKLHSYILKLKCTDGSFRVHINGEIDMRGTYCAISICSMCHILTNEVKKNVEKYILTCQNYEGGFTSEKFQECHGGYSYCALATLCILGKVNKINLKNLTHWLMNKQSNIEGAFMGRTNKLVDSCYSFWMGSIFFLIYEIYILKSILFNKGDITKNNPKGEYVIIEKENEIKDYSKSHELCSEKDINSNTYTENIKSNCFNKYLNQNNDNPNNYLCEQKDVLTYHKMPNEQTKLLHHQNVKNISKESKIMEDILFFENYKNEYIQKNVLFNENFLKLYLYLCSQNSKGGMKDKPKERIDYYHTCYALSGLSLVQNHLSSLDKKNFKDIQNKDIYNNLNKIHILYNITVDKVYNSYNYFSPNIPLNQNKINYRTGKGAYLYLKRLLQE
Experiment: Inhibition of Plasmodium falciparum PFT
Answers are plain numbers, as −log10 of the molar value.

Cn1cnc(S(=O)(=O)N(CCN(Cc2cncn2C)c2ccc(C#N)cc2)Cc2ccc(C#N)cc2)c1	7.02
CN(C)c1cccc2c(S(=O)(=O)N(CCN(Cc3cncn3C)c3ccc(C#N)cc3)Cc3ccccc3)cccc12	7.26
Cn1cnc(S(=O)(=O)N(CCN(Cc2cncn2C)c2ccc(Br)cc2)Cc2ccccc2)c1	8.70

Need pIC50 for each of these compounds.
1. Cn1cncc1CN(CCN(Cc1ccccc1)S(=O)(=O)c1ccccc1)c1ccc(C#N)cc1
2. Cn1cnc(S(=O)(=O)N(CCN(Cc2cncn2C)c2ccc(C#N)cc2)Cc2ccc(-c3ccccc3)cc2)c1
3. Cc1ccccc1CN(CCN(Cc1cncn1C)c1ccc(-c2ccccc2)cc1)S(=O)(=O)c1cn(C)cn1
4. Cn1cnc(S(=O)(=O)N(CCN(Cc2cncn2C)c2ccc(Br)cc2)Cc2ccccn2)c1
5. Cn1cnc(S(=O)(=O)N(CCN(Cc2cncn2C)c2ccc(C#N)cc2)CC2CCCCC2)c1

8.05
6.62
8.10
8.72
8.35

Hi, could you look up pIC50 for each item in my list?
1. Cn1cnc(S(=O)(=O)N(CCN(Cc2cncn2C)c2ccc(C#N)cc2)Cc2ccccn2)c1
2. Cc1ccccc1CN(CCN(Cc1cncn1C)c1ccc(C#N)cc1)S(=O)(=O)c1cn(C)cn1

[8.68, 9.22]

* * *

Test: Tmax in mouse at 50 mg/kg, po
Type: ADME, organism-based
Design: dose 50 mg/kg, route oral
Conditions: in vivo
experimental readout: Tmax (min)
One number for each entry, in min.

Use these answered entries as a reference point.
Cn1cnc(S(=O)(=O)N(CCN(Cc2cncn2C)c2ccc(C#N)cc2)Cc2ccccc2)c1	30
Cn1cncc1CN(CCN(Cc1ccccc1)S(=O)(=O)c1ccccn1)c1ccc(C#N)cc1	30

What measured Tmax goes with Cc1ccccc1CN(CCN(Cc1cncn1C)c1ccc(C#N)cc1)S(=O)(=O)c1cn(C)cn1 ?
40

* * *

Assay: AUC in rat at 50 mg/kg, po
Format: ADME, organism-based
Parameters: dose 50 mg/kg, route oral
Conditions: plasma
experimental readout: AUC (µM·h)
One number for each entry, in µM·h.

Sample Cc1ccccc1CN(CCN(Cc1cncn1C)c1ccc(C#N)cc1)S(=O)(=O)c1cn(C)cn1 — what was its AUC?
1.72

* * *

Tested on: Plasmodium falciparum
Experiment: Inhibition of Plasmodium falciparum 3D7 growth as reduced [3H]hypoxanthine incorporation
Format: functional
Settings: 3D7, 72 h, read-out: ED50 (the source's name)
experimental readout: EC50 (nM)
Give bare numbers, in nM.

Look over these answered cases.
Cn1cnc(S(=O)(=O)N(CCN(Cc2cncn2C)c2ccc(C#N)cc2)Cc2cccc(C#N)c2)c1	350
Cc1cccc(CN(CCN(Cc2cncn2C)c2ccc(C#N)cc2)S(=O)(=O)c2cn(C)cn2)c1	300

Shift focus to the following entry.
// returns reported EC50 for input Cn1cnc(S(=O)(=O)N(CCN(Cc2cncn2C)c2ccc(C#N)cc2)Cc2cccc(-n3cccc3)c2)c1
2500

* * *

Test: Half life in mouse at 50 mg/kg, po
Format: ADME, organism-based
Design: dose 50 mg/kg, route oral
Conditions: in vivo, read-out: beta t1/2
experimental readout: half-life (h)
One number for each entry, in h.

For the compound Cn1cnc(S(=O)(=O)N(CCN(Cc2cncn2C)c2ccc(C#N)cc2)Cc2ccccc2)c1 , what half-life is on record?
1.6

* * *

Assay: AUC in mouse at 50 mg/kg, po
Type: ADME, organism-based
Design: dose 50 mg/kg, route oral
Conditions: plasma
experimental readout: AUC (µM·h)
Give bare numbers, in µM·h.

Name the recorded AUC for Cn1cnc(S(=O)(=O)N(CCN(Cc2cncn2C)c2ccc(C#N)cc2)Cc2ccccc2)c1 .
1.87

* * *

Experiment: Cmax in rat at 50 mg/kg, po
Type: ADME, organism-based
Parameters: dose 50 mg/kg, route oral
Settings: in vivo
experimental readout: Cmax (nM)
One number for each entry, in nM.

# lookup: Cmax of Cc1ccccc1CN(CCN(Cc1cncn1C)c1ccc(C#N)cc1)S(=O)(=O)c1cn(C)cn1
1050

* * *

Molecular target: Protein farnesyltransferase (PFT) (Plasmodium falciparum) (UniProt Q5EI73+Q5EI74)
Assay: Selectivity for inhibition of Plasmodium falciparum PFT over rat PFT
Format: protein-complex assay
Assign Selectivity ratio to each entry below.

Recorded results for 2 compounds are shown here.
CN(C)c1cccc2c(S(=O)(=O)N(CCN(Cc3cncn3C)c3ccc(C#N)cc3)Cc3ccccc3)cccc12	3.3
Cn1cncc1CN(CCN(Cc1ccccc1)S(=O)(=O)c1ccccc1)c1ccc(C#N)cc1	1.5

Need Selectivity ratio for each of these compounds.
1. Cn1cnc(S(=O)(=O)N(CCN(Cc2cncn2C)c2ccc(Br)cc2)Cc2ccccn2)c1
2. Cn1cnc(S(=O)(=O)N(CCN(Cc2cncn2C)c2ccc(C#N)cc2)Cc2ccc(C#N)cc2)c1
3. Cn1cnc(S(=O)(=O)N(CCN(Cc2cncn2C)c2ccc(C#N)cc2)Cc2ccc(-c3ccccc3)cc2)c1
4. Cn1cnc(S(=O)(=O)N(CCN(Cc2cncn2C)c2ccc(C#N)cc2)CC2CCCCC2)c1

1. 44
2. 3.7
3. 3.7
4. 1.7

* * *

Target: Protein farnesyltransferase (PFT) (Plasmodium falciparum) (UniProt Q5EI73+Q5EI74)
Experiment: Inhibition of Plasmodium falciparum PFT at 50 nM
inhibition class ranges: low: < 40%; moderate: ≥ 40% and < 80%; high: ≥ 80%

Cn1cncc1CN(CCN(Cc1ccccc1)S(=O)(=O)c1ccccn1)c1ccc(C#N)cc1	high
Cn1cnc(S(=O)(=O)N(CCN(Cc2cncn2C)c2ccc(Br)cc2)Cc2ccccc2)c1	high
C=CCN(CCN(Cc1cncn1C)c1ccc(C#N)cc1)S(=O)(=O)c1cn(C)cn1	moderate
O=S(=O)(c1cccs1)N(CCN(Cc1c[nH]cn1)c1ccccc1)Cc1ccccc1	low
CC(=O)N(CCN(Cc1cncn1C)c1ccc(C#N)cc1)Cc1ccccc1	moderate
Cn1cnc(S(=O)(=O)N(CCN(Cc2cncn2C)c2ccc(C#N)cc2)CC2CCCCC2)c1	high
Cn1cncc1CN(CCN(Cc1ccccc1)S(=O)(=O)c1cccc2cccnc12)c1ccc(C#N)cc1	low
Cn1cnc(S(=O)(=O)N(CCN(Cc2cncn2C)c2ccc(C#N)cc2)Cc2ccc(-n3cccc3)cc2)c1	high

Which inhibition band matches Cn1cnc(S(=O)(=O)N(CCN(Cc2cncn2C)c2ccc(C#N)cc2)Cc2ccccc2)c1 ?
high

Subsequent entry: Cn1cnc(S(=O)(=O)N(CCN(Cc2cncn2C)c2ccc(C#N)cc2)CC2CCN(C(=O)OC(C)(C)C)CC2)c1
high

Let us now turn to CN(C)c1cccc2c(S(=O)(=O)N(CCN(Cc3cncn3C)c3ccc(C#N)cc3)Cc3ccccc3)cccc12
low

And the next one, CN(C)c1cccc2c(S(=O)(=O)N(CCN(Cc3c[nH]cn3)c3ccccc3)Cc3ccccc3)cccc12 ?
low

Entry Cn1cnc(S(=O)(=O)N(CCN(Cc2cncn2C)c2ccc(C#N)cc2)CC2CCN(c3ncccn3)CC2)c1 please
high

Another: Cn1cncc1CN(CCN(Cc1ccccc1)S(=O)(=O)c1cccs1)c1ccc(C#N)cc1
moderate

* * *

Target: Protein farnesyltransferase (PFT) (Plasmodium falciparum) (UniProt Q5EI73+Q5EI74)
Assay: Inhibition of Plasmodium falciparum PFT at 50 nM
Outcome label depends on inhibition relative to 90%: at/above gives 1, below gives 0.

Worked examples, 5 molecules total:
Cc1ccccc1CN(CCN(Cc1cncn1C)c1ccc(C#N)cc1)S(=O)(=O)c1cn(C)cn1	1
CC(C)C(=O)N(CCN(Cc1cncn1C)c1ccc(C#N)cc1)Cc1ccccc1	0
Cn1cnc(S(=O)(=O)N(CCN(Cc2cncn2C)c2ccc(C#N)cc2)Cc2cccnc2)c1	0
Cc1ccc(CN(CCN(Cc2cncn2C)c2ccc(C#N)cc2)S(=O)(=O)c2cn(C)cn2)cc1	0
Cn1cnc(S(=O)(=O)N(CCN(Cc2c[nH]cn2)c2ccccc2)Cc2ccccc2)c1	0

// switching to the query molecule
// inclusive: inhibition at least 90%? input: Cn1cnc(S(=O)(=O)N(CCN(Cc2cncn2C)c2ccc(C#N)cc2)Cc2ccccn2)c1
1
